# System: HPPD polypeptides (wild-type SEQ ID NO:1 and mutants)
# runConditions: in the presence of Cmpd. 1, 15 μM inhibitor, high substrate concentration; kapp normalized to kapp without inhibitor
Residual activity listing for selected molecules.

Req: I'd like to know its Residual activity. The molecule in question is 21 (protein, mutant HPPD polypeptide) MADLYENPMGLMGFEFIEFASPTPGTLEPIFEIMGFTKVATHRSKNVHLYRQGEINLILNNEPNSIASYFAAEHGPSVCGMAFRVKDSQKAYNRALELGAQPIHIDTGPMELNLPAIKGIGGAPLYLIDRFGEGSSIYDIDFVYLEGVERNPVGAGLKVIDHLTHNVYRGRMVYWANFYEKLFNFREARYFDIKGEYTGLTSKAMSAPDGMIRIPLNEESSKGAGQIEEFLMQFNGEGIQHVAFLTDDLVKTWDALKKIGMRFMTAPPDTYYEMLEGRLPDHGEPVDQLQARGILLDGSSVEGDKRLLLQIFSETLMGPVFFEFIQRKGDDGFGPHSFKALFESIERDQVRRGVLTAD
Resp: 18%

Req: I'd like to know its Residual activity. The molecule in question is 29 (protein, mutant HPPD polypeptide) MADLYENPMGLMGFEFIEFASPTPGTLEPIFEIMGFTKVATHRSKNVHLYRQGEINLILNNEPNSIASYFAAEHGPSVCGMAFRVKDSQKAYNRALELGAQPIHIDTGPMELNLPAIKGIGGAPLYLIDRFGEGSSIYDIDFVYLEGVERNPVGAGLKVIDHLTHNVYRGRMVYWANFYEKLFNFREARYFDIKGEYTGLTSKAMSAPDGMIRIPLNEESSKGAGQIEEFLMQFNGEGIQHVAFLTDDLVKTWDALKKIGMRFMTAPSDSYYEMLEGRLPDHGEPVDQLQARGILLDGSSVEGDKRLLLQIFSETLMGPVFFEFIQRKGDDGFGPHSFKVLFESVERDQVRRGVLTAD
Resp: 33%
